Quick reference for apparent KD of MS2 coat protein among some sequences
Tested on: MS2 coat protein
Experiment: apparent KD of MS2 coat protein; designed switch direction (-1 OFF switch, 1 ON switch): -1; higher = weaker reporter binding
Details: input ligand: none
recorded metric: apparent KD of MS2 coat protein (µM)

INSERT INTO assay_data (macromolecule_sequence, assayed_target, value_units, test_value) VALUES
  ('CAUUCACAUGAGGAUCACCCAUGUCAGGAUAUAGUCGAUAUAUGGAAACAUAUAUCGACUAGAAGGGACUAGCG [Jieuxxlusion 13 - Jieux - Exclusion 1] (Eterna round: R97, puzzle: Exclusion 1)', 'MS2 coat protein', 'µM', 0.0527),
  ('GUCAUCAAACAUGGGAUAAACAUGAGGAUCACCCAUGUUUACAAGUUUUUUGCUCGUCUUAUAAUAAGUUUGAUGAC [Antenna 8 - Jieux - Sensor, turn-off variant 1] (Eterna round: R97, puzzle: Sensor, turn-off variant 1)', 'MS2 coat protein', 'µM', 0.015),
  ('GAUUUUCAUGUAGGAUAUUCCACACAACAACUGGGAGAAGGACAUGAGGAUCACCCAUGUCCUACAACAACUUCAACAAACACA [Weak Sauce] (Eterna round: R96, puzzle: Exclusion NG 1)', 'MS2 coat protein', 'µM', 0.0114),
  ('UGAGCUUCAGGAUAUAUGUGGCGACCGUGAGGUCGAAGGUUACAUGAGGAUCACCCAUGUAGAAGGGAAGUUCU [Mat - Exclusion 2 - JL Mod - D19] (Eterna round: R97, puzzle: Exclusion 2)', 'MS2 coat protein', 'µM', 0.0622);

---

Tested on: MS2 coat protein
Assay: apparent KD of MS2 coat protein; higher = weaker reporter binding
Settings: Eterna round: R107; input ligand: arginine 13.2 mM
recorded metric: apparent KD of MS2 coat protein (µM)

INSERT INTO measurements (macromolecule_sequence, assayed_target, value_units, test_value) VALUES
  ('AACCGAGGCUAUCCUCUACGACUAUGUGAUACCAGAAUAAUUUUAUUCCCUUGGCAGCAUGACAUGAGGAUCACCCAUGUCUCUU [SSTheo A #9]', 'MS2 coat protein', 'µM', 0.024),
  ('ACAUGAGGAUCACCCAUGUACAUGACGGAAGGAGCGUGCAAAAGCACAGGUAGGUCGCCGAUCUACAUAUUGGGUAUUAUAUUUU [#29 Exclusion - Arginine A]', 'MS2 coat protein', 'µM', 0.0154),
  ('UGUAUGGACUGAAGGAGCGCCUCAAAAUAACUUGAGGAUCACCCAAGUAAGGCGAAAGCCGGGCAGGUAGGUCGCAGUCCAUACU [ArgBX 3]', 'MS2 coat protein', 'µM', 0.0241),
  ('GAUCGAUCAUAGUACGAUCGUUUUGUGGAAGGAGCGCAGAGGACUGCAGGUAGGUCGCCACAUGAGGAUCACCCAUGUCAGGAUU [XARG-A 24]', 'MS2 coat protein', 'µM', 0.0999),
  ('AACCACGAGUCGGCCGCCACUUGCAACUAGUUUCAGAAGCAGAAACAUGAGGAUCACCCAUGUCGAAGGACCGGGACUUUACAGG [theeternabot_sameState_MS2_Trp_B_18]', 'MS2 coat protein', 'µM', 0.0216),
  ('GCGGUGGGUCAAAAGUAAUAGAAUUCUGAAGGAGCGUGAUGAAACACAGGUAGGUCGCAGGAACAUGAGGAUCACCCAUGUACGG [Same State Arginine A GF21]', 'MS2 coat protein', 'µM', 0.0344);
